Molecular target: T1, human MSLN-R1-his protein (human, UniProt Q13421 296-390)
T1 construct: Made in HEK293E cells, purified on nickel column; also called hMSLN-R1-his; human MSLN-R1 protein; not shown: His tag
T1 chain: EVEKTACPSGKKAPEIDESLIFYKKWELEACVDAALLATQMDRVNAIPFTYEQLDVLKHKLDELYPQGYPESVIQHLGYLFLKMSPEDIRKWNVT
Test: ELISA, coated antigen, antibody 20 nM
reported metric: OD450

>  <binder>
S009-F7.48.1 chimeric antibody (antibody, human IgG1, kappa, V domains shown, Human-murine chimeric antibody, human IgG1/kappa constant regions) VH: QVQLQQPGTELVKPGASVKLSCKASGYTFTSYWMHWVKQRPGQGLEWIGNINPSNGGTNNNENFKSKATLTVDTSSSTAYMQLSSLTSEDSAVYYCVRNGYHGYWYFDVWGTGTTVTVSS VL: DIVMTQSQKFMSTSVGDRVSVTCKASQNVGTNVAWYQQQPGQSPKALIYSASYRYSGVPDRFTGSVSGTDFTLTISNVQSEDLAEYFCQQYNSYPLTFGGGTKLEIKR

>  <reported metric>
OD450

>  <readout value>
0.05

$$$$
>  <binder>
S009-F7.61.21 chimeric antibody (antibody, human IgG1, kappa, V domains shown, Human-murine chimeric antibody, human IgG1/kappa constant regions) VH: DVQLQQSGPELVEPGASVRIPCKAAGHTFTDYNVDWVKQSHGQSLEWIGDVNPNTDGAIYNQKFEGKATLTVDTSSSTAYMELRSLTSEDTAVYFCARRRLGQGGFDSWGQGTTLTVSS VL: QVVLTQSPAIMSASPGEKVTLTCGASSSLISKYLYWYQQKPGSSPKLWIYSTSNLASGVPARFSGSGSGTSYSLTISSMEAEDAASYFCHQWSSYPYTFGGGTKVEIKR

>  <reported metric>
OD450

>  <readout value>
0.05

$$$$
>  <binder>
S009-F7.53.2 chimeric antibody (antibody, human IgG1, kappa, V domains shown, Human-murine chimeric antibody, human IgG1/kappa constant regions) VH: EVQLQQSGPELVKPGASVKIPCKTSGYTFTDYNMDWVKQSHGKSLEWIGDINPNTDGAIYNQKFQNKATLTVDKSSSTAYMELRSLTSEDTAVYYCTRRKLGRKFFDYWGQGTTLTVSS VL: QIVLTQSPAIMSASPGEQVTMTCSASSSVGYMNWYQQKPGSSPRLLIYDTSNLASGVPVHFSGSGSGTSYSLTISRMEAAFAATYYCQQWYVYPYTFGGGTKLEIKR

>  <reported metric>
OD450

>  <readout value>
0.05

$$$$
